# Test system: Staphylococcus haemolyticus 415
# TEST PROTOCOL: MIC, standard broth micro-dilution assay
# Format: cell-based
# Method: The MIC's were determined using a standard broth micro-dilution assay.
READOUT TYPE: MIC (µg/mL)

MOLECULE	READOUT TYPE	MEASURED RESULT
CNC(CC(C)C)C(=O)NC1C(=O)NC(CC(N)=O)C(=O)NC2C(=O)NC3C(=O)NC(C(=O)NC(C(=O)O)c4cc(O)cc(O)c4-c4cc3ccc4O)C(OC3CC(C)(N)C(O)C(C)O3)c3ccc(c(Cl)c3)Oc3cc2cc(c3OC2OC(CO)C(O)C(O)C2OC2CC(C)(NCc3ccc(C(c4ccccc4)c4ccccc4)cc3)C(O)C(C)O2)Oc2ccc(cc2Cl)C1O (stereo not shown)	MIC	2

----------
# Tested on: Staphylococcus haemolyticus 415
# TEST PROTOCOL: MIC, standard broth micro-dilution assay
# Type: cell-based

MOLECULE	READOUT UNIT	MIC
CNC(CC(C)C)C(=O)NC1C(=O)NC(CC(N)=O)C(=O)NC2C(=O)NC3C(=O)NC(C(=O)NC(C(=O)O)c4cc(O)cc(O)c4-c4cc3ccc4O)C(OC3CC(C)(N)C(O)C(C)O3)c3ccc(c(Cl)c3)Oc3cc2cc(c3OC2OC(CO)C(O)C(O)C2OC2CC(C)(NCc3ccc4c(c3)OCO4)C(O)C(C)O2)Oc2ccc(cc2Cl)C1O (centres unmarked) [Compound 48, 3,4-methylenedioxylbenzyl]	µg/mL	8
CNC(CC(C)C)C(=O)NC1C(=O)NC(CC(N)=O)C(=O)NC2C(=O)NC3C(=O)NC(C(=O)NC(C(=O)O)c4cc(O)cc(O)c4-c4cc3ccc4O)C(OC3CC(C)(N)C(O)C(C)O3)c3ccc(c(Cl)c3)Oc3cc2cc(c3OC2OC(CO)C(O)C(O)C2OC2CC(C)(NCc3cccc(Oc4ccccc4)c3)C(O)C(C)O2)Oc2ccc(cc2Cl)C1O (centres unmarked) [Compound 49, 3-phenoxybenzyl]	µg/mL	1

----------
# System: Pedicoccus acidilacti
# TEST PROTOCOL: MIC, agar dilution on brain-heart infusion agar
# Assay type: cell-based
# CONDITION INFO: Pedioccccus acidilacti (mean of 10)
# note: boundary value 10 µg/mL maps to Condition not met; MIC below it maps to Condition met

COMPOUND	LABEL VALUE
CNC(CC(C)C)C(=O)NC1C(=O)NC(CC(N)=O)C(=O)NC2C(=O)NC3C(=O)NC(C(=O)NC(C(=O)O)c4cc(O)cc(O)c4-c4cc3ccc4O)C(OC3CC(C)(N)C(O)C(C)O3)c3ccc(c(Cl)c3)Oc3cc2cc(c3OC2OC(CO)C(O)C(O)C2OC2CC(C)(NCc3ccc(Sc4ccccc4)cc3)C(O)C(C)O2)Oc2ccc(cc2Cl)C1O (stereo not drawn)	Condition not met
CNC(CC(C)C)C(=O)NC1C(=O)NC(CC(N)=O)C(=O)NC2C(=O)NC3C(=O)NC(C(=O)NC(C(=O)O)c4cc(O)cc(O)c4-c4cc3ccc4O)C(OC3CC(C)(N)C(O)C(C)O3)c3ccc(c(Cl)c3)Oc3cc2cc(c3OC2OC(CO)C(O)C(O)C2OC2CC(C)(NCc3ccc(OCc4ccccc4)c(OC)c3)C(O)C(C)O2)Oc2ccc(cc2Cl)C1O (stereo not drawn)	Condition not met
CNC(CC(C)C)C(=O)NC1C(=O)NC(CC(N)=O)C(=O)NC2C(=O)NC3C(=O)NC(C(=O)NC(C(=O)O)c4cc(O)cc(O)c4-c4cc3ccc4O)C(OC3CC(C)(N)C(O)C(C)O3)c3ccc(c(Cl)c3)Oc3cc2cc(c3OC2OC(CO)C(O)C(O)C2OC2CC(C)(NCc3ccc(-c4ccc(-c5ccccc5)cc4)cc3)C(O)C(C)O2)Oc2ccc(cc2Cl)C1O (stereo not drawn) [Compound 36, 4-[4-biphenyl]benzyl]	Condition met
CNC(CC(C)C)C(=O)NC1C(=O)NC(CC(N)=O)C(=O)NC2C(=O)NC3C(=O)NC(C(=O)NC(C(=O)O)c4cc(O)cc(O)c4-c4cc3ccc4O)C(OC3CC(C)(N)C(O)C(C)O3)c3ccc(c(Cl)c3)Oc3cc2cc(c3OC2OC(CO)C(O)C(O)C2OC2CC(C)(NCc3ccc(SC)cc3)C(O)C(C)O2)Oc2ccc(cc2Cl)C1O (stereo not drawn)	Condition not met
CNC(CC(C)C)C(=O)NC1C(=O)NC(CC(N)=O)C(=O)NC2C(=O)NC3C(=O)NC(C(=O)NC(C(=O)O)c4cc(O)cc(O)c4-c4cc3ccc4O)C(OC3CC(C)(N)C(O)C(C)O3)c3ccc(c(Cl)c3)Oc3cc2cc(c3OC2OC(CO)C(O)C(O)C2OC2CC(C)(NCc3ccc(C=Cc4ccccc4)cc3)C(O)C(C)O2)Oc2ccc(cc2Cl)C1O (stereo not drawn)	Condition met
CNC(CC(C)C)C(=O)NC1C(=O)NC(CC(N)=O)C(=O)NC2C(=O)NC3C(=O)NC(C(=O)NC(C(=O)O)c4cc(O)cc(O)c4-c4cc3ccc4O)C(OC3CC(C)(N)C(O)C(C)O3)c3ccc(c(Cl)c3)Oc3cc2cc(c3OC2OC(CO)C(O)C(O)C2OC2CC(C)(NCc3ccc(OCc4ccccc4)cc3)C(O)C(C)O2)Oc2ccc(cc2Cl)C1O (stereo not drawn)	Condition met

Attribution: patent US5843889A
